Values from patent US11834453B2

Measured IC50 accompanies every entry in the list below.
tested.target: EGFR wild type (EGFR WT) (Homo sapiens (Human))
Sequence (P00533 25-1210): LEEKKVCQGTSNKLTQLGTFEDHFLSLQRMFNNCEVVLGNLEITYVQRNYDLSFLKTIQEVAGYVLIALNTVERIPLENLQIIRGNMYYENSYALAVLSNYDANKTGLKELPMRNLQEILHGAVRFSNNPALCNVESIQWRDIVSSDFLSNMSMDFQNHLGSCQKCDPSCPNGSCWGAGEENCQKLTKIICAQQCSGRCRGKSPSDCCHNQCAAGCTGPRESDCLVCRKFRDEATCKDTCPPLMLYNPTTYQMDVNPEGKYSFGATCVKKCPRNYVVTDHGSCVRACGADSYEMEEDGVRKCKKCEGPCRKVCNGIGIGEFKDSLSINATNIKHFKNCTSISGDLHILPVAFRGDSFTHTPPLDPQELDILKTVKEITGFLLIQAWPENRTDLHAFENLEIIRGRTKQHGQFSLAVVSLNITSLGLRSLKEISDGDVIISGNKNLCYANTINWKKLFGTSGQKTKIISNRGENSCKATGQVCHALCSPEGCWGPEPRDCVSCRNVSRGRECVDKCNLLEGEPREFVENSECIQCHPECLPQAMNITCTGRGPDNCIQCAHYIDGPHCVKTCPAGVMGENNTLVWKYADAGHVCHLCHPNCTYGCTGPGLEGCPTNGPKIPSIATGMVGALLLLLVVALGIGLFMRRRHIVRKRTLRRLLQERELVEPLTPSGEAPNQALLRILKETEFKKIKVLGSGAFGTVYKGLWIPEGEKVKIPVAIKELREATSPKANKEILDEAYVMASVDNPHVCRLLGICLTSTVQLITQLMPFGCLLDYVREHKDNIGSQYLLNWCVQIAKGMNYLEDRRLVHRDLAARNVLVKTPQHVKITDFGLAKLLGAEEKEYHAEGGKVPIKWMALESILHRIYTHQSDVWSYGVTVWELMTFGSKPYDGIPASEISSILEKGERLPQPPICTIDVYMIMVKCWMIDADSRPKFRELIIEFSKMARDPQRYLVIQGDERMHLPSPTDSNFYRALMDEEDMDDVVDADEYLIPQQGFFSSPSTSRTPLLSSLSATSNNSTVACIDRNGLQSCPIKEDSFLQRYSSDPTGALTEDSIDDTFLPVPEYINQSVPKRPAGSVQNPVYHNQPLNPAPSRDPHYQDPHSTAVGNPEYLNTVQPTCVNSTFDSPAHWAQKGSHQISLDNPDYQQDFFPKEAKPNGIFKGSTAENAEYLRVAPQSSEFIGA
method.description: Cellular phosphorylation assay, EGF-stimulated EGFR phosphorylation (Y1068) in engineered NIH 3T3 cells, Odyssey imaging, Assay 5 (footnote 1)
Format: cell-based
run.parameters: values marked with footnote 1

compound	IC50
Cc1cc(Nc2ncnc3cnc(S(C)(=O)=O)nc23)ccc1Oc1ccc2c(C)onc2c1 [Example 5]	5 µM
CSc1ncc2ncnc(Nc3ccc(Oc4ccc5c(c4)ncn5C)c(C)c3)c2n1 [Example 1]	5 µM
Cc1cc(Nc2ncnc3cnc(N(C)C)nc23)ccc1Oc1ccc2c(c1)ncn2C [Example 3, 2,2,2-trifluoroacetate]	5 µM
CSc1ncc2ncnc(Nc3ccc(Oc4ccc5conc5c4)c(C)c3)c2n1 [Example 10]	5 µM
CSc1ncc2ncnc(Nc3ccc(Oc4ccc5csnc5c4)c(C)c3)c2n1 [Example 11, 2,2,2-trifluoroacetate]	5 µM
COc1ncc2ncnc(Nc3ccc(Oc4ccc5c(c4)ncn5C)c(C)c3)c2n1 [Example 8, 2,2,2-trifluoroacetate]	5 µM
COc1ncc2ncnc(Nc3ccc(Oc4ccc5c(C)onc5c4)c(C)c3)c2n1 [Example 6]	5 µM
Cc1cc(Nc2ncnc3cnc(N4CCOCC4)nc23)ccc1Oc1ccc2c(c1)ncn2C [Example 9, 2,2,2-trifluoroacetate]	5 µM

###

tested.target: MDR1 (P-gp) (Homo sapiens (Human), UniProt P08183)
Sequence (P08183 whole entry): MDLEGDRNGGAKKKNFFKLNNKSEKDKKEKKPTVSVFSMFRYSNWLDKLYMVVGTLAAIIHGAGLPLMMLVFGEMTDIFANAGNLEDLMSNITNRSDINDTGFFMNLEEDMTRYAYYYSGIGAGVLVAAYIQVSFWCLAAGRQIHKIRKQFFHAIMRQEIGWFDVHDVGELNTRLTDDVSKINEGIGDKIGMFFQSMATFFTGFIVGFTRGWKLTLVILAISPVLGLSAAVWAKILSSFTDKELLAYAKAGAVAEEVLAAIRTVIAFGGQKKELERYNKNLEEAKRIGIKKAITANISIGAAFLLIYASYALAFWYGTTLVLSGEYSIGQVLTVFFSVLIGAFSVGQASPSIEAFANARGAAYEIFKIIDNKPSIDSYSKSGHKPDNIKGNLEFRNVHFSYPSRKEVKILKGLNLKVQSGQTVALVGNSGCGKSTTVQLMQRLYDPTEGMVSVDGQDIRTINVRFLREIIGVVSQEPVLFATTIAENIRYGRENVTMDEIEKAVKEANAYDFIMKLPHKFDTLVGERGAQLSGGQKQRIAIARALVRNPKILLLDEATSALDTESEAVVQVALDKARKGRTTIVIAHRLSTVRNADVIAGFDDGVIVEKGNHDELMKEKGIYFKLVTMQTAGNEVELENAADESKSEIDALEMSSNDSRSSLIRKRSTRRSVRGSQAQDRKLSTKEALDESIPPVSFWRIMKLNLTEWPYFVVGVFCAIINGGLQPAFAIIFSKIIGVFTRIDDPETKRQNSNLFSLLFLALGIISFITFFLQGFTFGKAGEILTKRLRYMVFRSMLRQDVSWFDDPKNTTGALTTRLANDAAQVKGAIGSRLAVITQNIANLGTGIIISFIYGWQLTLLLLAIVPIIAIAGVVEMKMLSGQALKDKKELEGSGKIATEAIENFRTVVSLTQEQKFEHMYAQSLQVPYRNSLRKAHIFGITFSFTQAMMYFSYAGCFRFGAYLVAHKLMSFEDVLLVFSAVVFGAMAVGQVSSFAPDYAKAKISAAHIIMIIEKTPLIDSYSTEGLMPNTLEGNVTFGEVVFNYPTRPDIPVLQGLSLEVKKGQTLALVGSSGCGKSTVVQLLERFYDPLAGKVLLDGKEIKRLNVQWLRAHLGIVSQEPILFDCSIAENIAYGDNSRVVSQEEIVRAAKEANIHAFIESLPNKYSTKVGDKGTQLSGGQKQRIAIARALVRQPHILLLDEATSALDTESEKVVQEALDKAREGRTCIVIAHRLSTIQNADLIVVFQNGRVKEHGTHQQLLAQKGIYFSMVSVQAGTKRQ
method.description: MDR1 transfected LLC-PK1 permeability/efflux, Assay 6
run.parameters: pig, LLC-PK1, Assay 6 Pe Ratio, efflux ratio Papp(B-A)/Papp(A-B), MDR1 transfected LLC-PK1
Measured efflux ratio at 2 h, 1 μM accompanies every entry in the list below.
measurement.type: efflux ratio at 2 h, 1 μM

compound	assay.result
Cc1cc(Nc2ncnc3cnc(N(C)C)nc23)ccc1Oc1ccc2c(c1)ncn2C [Example 3, 2,2,2-trifluoroacetate]	1
COc1ncc2ncnc(Nc3ccc(Oc4ccc5c(c4)ncn5C)c(C)c3)c2n1 [Example 8, 2,2,2-trifluoroacetate]	0.9
Cc1cc(Nc2ncnc3cnc(N4CC5C(C4)C5(F)F)nc23)ccc1Oc1ccc2c(c1)ncn2C (stereo not drawn)	1.8
Cc1cc(Nc2ncnc3cnc(N(C)CC(C)(C)O)nc23)ccc1Oc1ccc2c(c1)ncn2C	1.8
Cc1cc(Nc2ncnc3cnc(NOCC(C)(C)O)nc23)ccc1Oc1ccc2c(c1)ncn2C	6
Cc1cc(Nc2ncnc3cnc(N4CCOCC4)nc23)c(F)cc1Oc1ccc2c(c1)ncn2C.O=C(O)C(F)(F)F	1.3
Cc1cc(Nc2ncnc3cnc(N4CCOC5CC54)nc23)ccc1Oc1ccc2c(c1)ncn2C (racemic)	2.6
Cn1cnc2cc(Oc3ccc(Nc4ncnc5cnc(N6CCOCC6)nc45)cc3F)ccc21.O=C(O)C(F)(F)F	2.1
Cc1cc(Nc2ncnc3cnc(N4CC[C@H](C(C)(C)O)C4)nc23)ccc1Oc1ccc2c(c1)ncn2C	3.8
CSc1ncc2ncnc(Nc3ccc(Oc4ccc5c(c4)ncn5C)c(C)c3)c2n1	1.2
Cc1cc(Nc2ncnc3cnc(O[C@H]4CCNC[C@@H]4F)nc23)ccc1Oc1ccc2c(c1)ncn2C	72.1
Cc1cc(Nc2ncnc3cnc(-c4ccncc4)nc23)ccc1Oc1ccc2c(c1)ncn2C [Example 47, bis(2,2,2-trifluoroacetate)]	1.1
Cc1cc(Nc2ncnc3cnc(N4C[C@H]5C[C@@H]4CO5)nc23)ccc1Oc1cc(F)c2c(c1)ncn2C	1.3
Cc1cc(Nc2ncnc3cnc(N[C@@H]4CCN(C)C[C@@H]4F)nc23)ccc1Oc1ccc2c(c1)ncn2C	10.2
Cc1cc(Nc2ncnc3cnc(N[C@H]4CN(C)C[C@H]4F)nc23)ccc1Oc1ccc2c(c1)ncn2C	16.6
Cc1cc(Nc2ncnc3cnc(N[C@@H]4CCNC[C@@H]4F)nc23)ccc1Oc1ccc2c(c1)ncn2C	76
Cc1cc(Nc2ncnc3cnc(N4CCO[C@@H]5C[C@@H]54)nc23)ccc1Oc1ccc2c(c1)ncn2C	1.9
Cc1cc(Nc2ncnc3cnc(N4CCO[C@H]5C[C@H]54)nc23)ccc1Oc1ccc2c(c1)ncn2C [Example 161]	1.8
CC(=O)N1CCN(c2ncc3ncnc(Nc4ccc(Oc5ccc6c(c5)ncn6C)c(C)c4)c3n2)CC1	30
Cc1cc(Nc2ncnc3cnc(N(C)CCO)nc23)ccc1Oc1ccc2c(c1)ncn2C	11.2
Cc1cc(Nc2ncnc3cnc(N4CC[C@@H](C(F)F)C4)nc23)ccc1Oc1ccc2c(c1)ncn2C	1.2
Cc1cc(Nc2ncnc3cnc(N4CC5(CCO5)C4)nc23)ccc1Oc1ccc2c(c1)ncn2C	1.9
CCNc1ncc2ncnc(Nc3ccc(Oc4ccc5c(ccn5C)c4)c(C)c3)c2n1	2.4
Cc1nc(-c2ncc3ncnc(Nc4ccc(Oc5ccc6c(c5)ncn6C)c(C)c4)c3n2)cs1	1.6
Cc1cc(Nc2ncnc3cnc(NC4(C)CC4)nc23)ccc1Oc1ccc2c(c1)ncn2C	1.5
Cc1cc(Nc2ncnc3cnc(NCC4CC4)nc23)ccc1Oc1ccc2c(c1)ncn2C	1.9
Cc1cc(Nc2ncnc3cnc(-c4cccnc4)nc23)ccc1Oc1ccc2c(c1)ncn2C	1.5
Cc1cc(Nc2ncnc3cnc(NCC(C)(C)C#N)nc23)ccc1Oc1ccc2c(c1)ncn2C	8.1
Cc1cc(Nc2ncnc3cnc(N4CCCO4)nc23)ccc1Oc1ccc2c(c1)ncn2C	3.7
CON1CCN(c2ncc3ncnc(Nc4ccc(Oc5ccc6c(c5)ncn6C)c(C)c4)c3n2)CC1	1.3
